Test system: INS-1 cells
Experiment: Mitochondrial DNA content of INS-1 cells by slot blot with COX-I probe
Details: read-out: IC50 for decrease of mtDNA content; INS-1 cells, seven days
Measured quantity: IC50

{"Smiles record": "Nc1ccn([C@H]2CC[C@@H](CO)O2)c(=O)n1", "Experimental target": "INS-1 cells", "Measured quantity": "IC50", "Observed result": "~50 µM"}

---

Molecular target: purified F1-ATPase (Bos taurus, UniProt P00829+P19483)
Construct: F1 ATPase subcomplexes were isolated from bovine cardiac samples
Experiment: ATP hydrolysis by purified F1-ATPase
Conditions: bovine cardiac F1-ATPase; read-out: IC50 for inhibition of ATP hydrolysis by purified F1-ATPase

{"Smiles record": "CC[C@H]1O[C@]2(C)[C@H](OC(C)=O)[C@@]1(C)O[C@@H](/C=C/C=C/C=C/c1oc(=O)cc(OC)c1C)[C@@H]2O", "Value units": "nM", "IC50": 850}
